The measurements presented in this section are drawn from paper PMC4649674.

Molecular target: T1, HetR (wild type, full-length) from Anabaena sp. PCC 7120 (Anabaena sp. PCC 7120, UniProt P27709 1-299)
T1 construct: HetR, transcription factor of Anabaena sp; PCC 7120; DBD 1-98, flap domain 99-216, hood domain 217-299; Intertwined homodimer in the crystal with 21-bp hetP promoter DNA; A SeMet-labelled form (E. coli B834) was used for phasing only; also called wild-type HetR; full-length HetR; source: E. coli Rosetta (DE3), purified (Ni-NTA, Superdex 75)
T1 sequence (looked up): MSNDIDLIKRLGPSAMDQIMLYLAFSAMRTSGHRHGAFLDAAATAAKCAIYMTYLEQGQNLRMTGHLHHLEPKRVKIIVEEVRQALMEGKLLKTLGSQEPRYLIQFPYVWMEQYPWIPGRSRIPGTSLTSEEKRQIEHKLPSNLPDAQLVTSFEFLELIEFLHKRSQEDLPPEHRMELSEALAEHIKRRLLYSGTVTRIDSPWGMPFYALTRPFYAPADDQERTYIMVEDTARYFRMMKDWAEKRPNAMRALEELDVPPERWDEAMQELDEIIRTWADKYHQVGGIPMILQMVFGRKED
Assay: ITC; iTC200, 25 °C; protein in the sample cell (10 or 50 μM), PatS6 in the syringe (150 or 750 μM; 2 mM for HetR_(Hood)); 1 M NaCl, 5% (v/v) glycerol, 10 mM Tris-Cl, pH 7.8
Details: both partners purified
Property: Kd (nM)

[[record]]
binder = "ERGSGR (PatS-derived hexapeptide; RGSGR is the C-terminal five residues of PatS of Anabaena sp; PCC 7120; source: synthetic peptide (GL Biochem, Shanghai)) [PatS6 (PatS-derived hexapeptide ERGSGR)]"
observed_result = 12

